Assay: yeast display, Sf9 membrane polyspecificity reagent, FACS + sequencing; frameworks hold sequencing errors
parameter: polyreactivity (PSR sort gate)

QVQLVESGGGLVQAGGSLRVSCAASGSTLGRNTMGWYRQAPGKVRELVAAITITDSTNYADSVKGRFTISRDNAKNTVYLQMNSLKPEDTAVYYGAKRRYYSTPRWGSSTYDYWGLGTQVTVSS
low polyreactivity
QVQLVESGGGLVQAGGSLRLSCAASGITFYYYAMGWYRQAPGKERELVARISYGGGRTYYADSVKGRFTISRDNAKNTVYLQMNSLKPEDTAVYYCAARQGYRSYRRYDYWGQGTQVTVSS
high polyreactivity
QVQHVESGGGLVQAGGSLRLSCSASGITFGYYAMGWYRQAPGKERELVAAIRSSGGSTYYADSVKGRFTISRDNAKNTVYLQMKSLKPEDTAVYYCNARYRKSSRPGYEPFERYYWGQGTQVTVSS
high polyreactivity
QVQLVESGGGLVQAGGSLRLSLAASGLSLRNYAMGWYRQAPGKERELVADITTGGGRTYYADSVKGRFTISRDNAKNTVYLQMNSLKPEDTAVYYCAAPTHLHGHGNQNEFYYWGQGTQVTVSS
low polyreactivity

Q. Indicate its recorded polyreactivity (PSR sort gate); the sequence in question is QVQLVESGGGLVQAGGSLRLSCAASGRTFRYNAMGWYRQAPGKERELVAAISRGANTNYADSVKGRFTISRDNAKNTVYLQMNSLKPEDTAVYYCAAVPGYRFYYWGQGTQVTVSS
A. high polyreactivity

----------
Experiment: yeast display, Sf9 membrane polyspecificity reagent, FACS + sequencing; frameworks hold sequencing errors
parameter: polyreactivity (PSR sort gate)

Examples with answers:
QVQLVESGGGLVQAAGSLRLSCAASGITFGLYTMGWYRQAPGKERELVAAISWSGGGTYYADSVKGRFTISRDNAKNTVYLQMNSLKPEDTAVYYCAAPVRGSYPYSVGVDYWGQGTQVTVSS
high polyreactivity
QVQLVESGGGLVQAGGSLRLICAASGSIFVLNAMGWYRQAPGKERELVAAITSGGSTYYADSVKGRFTISRDNAKNTVYLQMISLKPEDTAVYYCNALDLSPSYKYDYWGQGTQVTVSS
low polyreactivity
QVQLVESGGGLVQAGGSLRLSCAASGSTDNNAMGWYRQAPGKERELVAAIRFRSGSTYYADSVNGRFTISRDNAKNTVYLQMNSLKPEDTAVYYCAAPGSPYGYWGQGTQVTVSS
high polyreactivity
QVQHVESGGGLVQAGRSLRLSCAASGSIVGNNAMGWYRQAPGKERELVAVITDGGNTYYADSVKGRFTISRDNAKNTVYLEMNSLKPEDTAVYYCNADWWGDSDYWGQGTQVTVSS
low polyreactivity
VQLVESGGGLVQAGGSLRLSCAACGSTFYPYAMGWYRPAPGKERELVAAISYSGGSTYYADSVKGRFTISRDNAKNTVYLQMNSLKPEDTAVYYCAARYWYKRFVWGDYWGQGTQVTVSS
high polyreactivity

Q. Answer with reported polyreactivity (PSR sort gate) of QVHLVESGGGLVQAGGSLRLSCAASGFIFRYYAMGWYRQAPGKEREMVAAISWSGGSTYYADSVKGRFTISRDNAKNTVYLQMNSLKPEDTAVYYCAADRYAILFYAEDYWGQGTQVTVSS
A. low polyreactivity

Q. Using the record for QVQLVESGGGLVQAGGSLRLSCAASGSTFSTYAMGWYRQAPGKERELVAAITRRGGRTYYADSVKGRFTISRDNAKNTVYLQMNSLKPEDTAVYYCAKTSPVSDGYYWGQGTQVTVSS , state its measured polyreactivity (PSR sort gate).
A. high polyreactivity

Q. Identify the reported polyreactivity (PSR sort gate) for the following entry. QVQLVESGGGLVQEGGSLLLSCAASGRTFNQYAMGWYRQAPGKERELVAGITISGGSTYYADSVKGRFTISRENAKNTVYLQMNSLIPEDTAVYYCIAVFDYYRQSKWTMDYWGQGTQVTVSS
A. low polyreactivity

Q. Give polyreactivity (PSR sort gate) for QVQLVESGGGLLQAGGSLRLSCAASGLTFVDYAMGWYRQAPGKERELVAAITTSGGSITYYSDSVKGRFTISRDNAKNTVYLQMNSLKPEDTAVYSCNADYGIYTDSFRGPDYESWGQGTQVTVSS
A. low polyreactivity

Q. For the sequence QVQLVESGGGLVQAGGSLRLSCAASGRILAGYAMGWYRQAPGKERELVAVISVGTGSTYYADSVKGRFTISRDNAKNTVYLQMNSLKPEDTAVYYCAAVTAITSLRMGYWGQGTQVTVSS , report polyreactivity (PSR sort gate).
A. low polyreactivity
